Below: a set of entries, each annotated with reported relative viability.
- Tested on: NCI-H1648
- assay.text: relative viability (nuclei count vs DMSO), 5 days (fraction); higher = more cells survive
- condition.details: first compound 158.11 µM
Reply with the value as a number alone.

O=C(O)CCCCC(CCSCc1ccccc1)SCc1ccccc1 (centres undefined) [CPI-613] + Nc1nc2[nH]cc(CCc3ccc(C(=O)N[C@@H](CCC(=O)O)C(=O)O)cc3)c2c(=O)[nH]1 [Pemetrexed] (partner 0.2 µM) ... 0.527
O=C(O)CCCCC(CCSCc1ccccc1)SCc1ccccc1 (centres undefined) [CPI-613] + CC(=O)c1c(C)c2cnc(Nc3ccc(N4CCNCC4)cn3)nc2n(C2CCCC2)c1=O [Palbociclib] (partner 0.5 µM) ... 0.192
O=C(O)CCCCC(CCSCc1ccccc1)SCc1ccccc1 (centres undefined) [CPI-613] + O=C(CCCCCCC(=O)Nc1ccccc1)NO [Vorinostat] (partner 1 µM) ... 0.142

Turning now to a further record.
Reported relative viability, compound O=C(O)CCCCC(CCSCc1ccccc1)SCc1ccccc1 (centres undefined) [CPI-613] + Nc1ncn([C@H]2C[C@H](O)[C@@H](CO)O2)c(=O)n1 [Decitabine] (partner 2 µM) : ____
0.4

====

- Tested on: NCI-H2085
- assay.text: relative viability (nuclei count vs DMSO), 5 days (fraction); higher = more cells survive
- condition.details: first compound 0.5 µM
Below: a set of entries, each annotated with reported relative viability.
Reply with the value as a number alone.

Nc1ccn([C@@H]2O[C@H](CO)[C@@H](O)[C@@H]2O)c(=O)n1 [Cytarabine] + Cc1cc(Nc2cc(N3CCN(C)CC3)nc(Sc3ccc(NC(=O)C4CC4)cc3)n2)n[nH]1 [Tozasertib] (partner 0.1 µM) ... 0.719
COc1cc2nccc(Oc3ccc(NC(=O)Nc4cc(C)on4)c(Cl)c3)c2cc1OC [Tivozanib] + CC(=O)Nc1cccc(-n2c(=O)n(C3CC3)c(=O)c3c(Nc4ccc(I)cc4F)n(C)c(=O)c(C)c32)c1 [Trametinib] (partner 0.02 µM) ... 0.511
COc1cc2nccc(Oc3ccc(NC(=O)Nc4cc(C)on4)c(Cl)c3)c2cc1OC [Tivozanib] + CCNC(=O)c1noc(-c2cc(C(C)C)c(O)cc2O)c1-c1ccc(CN2CCOCC2)cc1 [Luminespib] (partner 0.01 µM) ... 0.522

Reported relative viability, molecule COc1cc2nccc(Oc3ccc(NC(=O)Nc4cc(C)on4)c(Cl)c3)c2cc1OC [Tivozanib] + COc1cccc2cc(-c3nc([C@H]4CC[C@H](C(=O)O)CC4)n4ncnc(N)c34)[nH]c12 [OSI-027] (partner 0.5 µM) : ____
0.528

====

- Test system: EMC-BAC-2
- assay.text: relative viability (nuclei count vs DMSO), 5 days (fraction); higher = more cells survive
- condition.details: first compound 2.53 µM
value.kind: relative viability
Reply with the value as a number alone.

Reference set, count: 6
Cc1cnc(-c2cnc(NCCNc3ccc(C#N)cn3)nc2-c2ccc(Cl)cc2Cl)[nH]1 + Nc1nc2[nH]cc(CCc3ccc(C(=O)N[C@@H](CCC(=O)O)C(=O)O)cc3)c2c(=O)[nH]1 [Pemetrexed] (partner 0.2 µM) ... 0.368
Cc1cnc(-c2cnc(NCCNc3ccc(C#N)cn3)nc2-c2ccc(Cl)cc2Cl)[nH]1 + Cc1nc(NC(=O)N2CCC[C@H]2C(N)=O)sc1-c1ccnc(C(C)(C)C(F)(F)F)c1 [Alpelisib] (partner 2 µM) ... 0.749
O=c1[nH]c2ccccc2n1C1CCN(CCCC(c2ccc(F)cc2)c2ccc(F)cc2)CC1 [Pimozide] + O=C(c1cc(Cc2n[nH]c(=O)c3ccccc23)ccc1F)N1CCN(C(=O)C2CC2)CC1 [Olaparib] (partner 8 µM) ... 0.456
Cc1cnc(-c2cnc(NCCNc3ccc(C#N)cn3)nc2-c2ccc(Cl)cc2Cl)[nH]1 + CC(=O)Nc1cccc(-n2c(=O)n(C3CC3)c(=O)c3c(Nc4ccc(I)cc4F)n(C)c(=O)c(C)c32)c1 [Trametinib] (partner 0.02 µM) ... 0.887
O=c1[nH]c2ccccc2n1C1CCN(CCCC(c2ccc(F)cc2)c2ccc(F)cc2)CC1 [Pimozide] + Cc1nc(Nc2ncc(C(=O)Nc3c(C)cccc3Cl)s2)cc(N2CCN(CCO)CC2)n1 [Dasatinib] (partner 0.075 µM) ... 0.285
Cc1cnc(-c2cnc(NCCNc3ccc(C#N)cn3)nc2-c2ccc(Cl)cc2Cl)[nH]1 + CC(C)C[C@H](NC(=O)[C@H](Cc1ccccc1)NC(=O)c1cnccn1)B(O)O [Bortezomib] (partner 0.002 µM) ... 1.07

Reported relative viability, compound O=c1[nH]c2ccccc2n1C1CCN(CCCC(c2ccc(F)cc2)c2ccc(F)cc2)CC1 [Pimozide] + CCNC(=O)c1noc(-c2cc(C(C)C)c(O)cc2O)c1-c1ccc(CN2CCOCC2)cc1 [Luminespib] (partner 0.01 µM) : ____
1.18

Please do the same for Cc1cnc(-c2cnc(NCCNc3ccc(C#N)cn3)nc2-c2ccc(Cl)cc2Cl)[nH]1 + COc1cccc2cc(-c3nc([C@H]4CC[C@H](C(=O)O)CC4)n4ncnc(N)c34)[nH]c12 [OSI-027] (partner 0.5 µM) as well.
0.447

Please do the same for O=c1[nH]c2ccccc2n1C1CCN(CCCC(c2ccc(F)cc2)c2ccc(F)cc2)CC1 [Pimozide] + COc1cc2c(Oc3ccc(NC(=O)C4(C(=O)Nc5ccc(F)cc5)CC4)cc3F)ccnc2cc1OCCCN1CCOCC1 [Foretinib] (partner 0.25 µM) as well.
0.841

====

- Tested on: EPLC-272H
- assay.text: relative viability (nuclei count vs DMSO), 5 days (fraction); higher = more cells survive
- condition.details: first compound 0.253 µM
value.kind: relative viability
Reply with the value as a number alone.

Reference set, count: 2
Cc1cnc(-c2cnc(NCCNc3ccc(C#N)cn3)nc2-c2ccc(Cl)cc2Cl)[nH]1 + CCNC(=O)c1noc(-c2cc(C(C)C)c(O)cc2O)c1-c1ccc(CN2CCOCC2)cc1 [Luminespib] (partner 0.01 µM) ... 0.313
Cc1cnc(-c2cnc(NCCNc3ccc(C#N)cn3)nc2-c2ccc(Cl)cc2Cl)[nH]1 + N=C(N)NC(=N)NCCc1ccccc1 [Phenformin] (partner 250 µM) ... 0.318

Turning now to a further record.
Reported relative viability, compound O=c1[nH]c2ccccc2n1C1CCN(CCCC(c2ccc(F)cc2)c2ccc(F)cc2)CC1 [Pimozide] + Nc1ncn([C@H]2C[C@H](O)[C@@H](CO)O2)c(=O)n1 [Decitabine] (partner 2 µM) : ____
0.362

====

- System: NCI-H1395
- assay.text: relative viability (nuclei count vs DMSO), 5 days (fraction); higher = more cells survive
- condition.details: first compound 0.005 µM
value.kind: relative viability
Reply with the value as a number alone.

Nc1ccn([C@@H]2O[C@H](CO)[C@@H](O)[C@@H]2O)c(=O)n1 [Cytarabine] + Nc1ncn([C@H]2C[C@H](O)[C@@H](CO)O2)c(=O)n1 [Decitabine] (partner 2 µM) ... 0.634
COc1cc2nccc(Oc3ccc(NC(=O)Nc4cc(C)on4)c(Cl)c3)c2cc1OC [Tivozanib] + O=C(c1cc(Cc2n[nH]c(=O)c3ccccc23)ccc1F)N1CCN(C(=O)C2CC2)CC1 [Olaparib] (partner 8 µM) ... 0.421
Nc1ccn([C@@H]2O[C@H](CO)[C@@H](O)[C@@H]2O)c(=O)n1 [Cytarabine] + N=C(N)NC(=N)NCCc1ccccc1 [Phenformin] (partner 250 µM) ... 0.411

Reported relative viability, compound COc1cc2nccc(Oc3ccc(NC(=O)Nc4cc(C)on4)c(Cl)c3)c2cc1OC [Tivozanib] + Nc1ncn([C@H]2C[C@H](O)[C@@H](CO)O2)c(=O)n1 [Decitabine] (partner 2 µM) : ____
0.671

Please do the same for COc1cc2nccc(Oc3ccc(NC(=O)Nc4cc(C)on4)c(Cl)c3)c2cc1OC [Tivozanib] + O=C(CCCCCCC(=O)Nc1ccccc1)NO [Vorinostat] (partner 1 µM) as well.
0.476

====

- Tested on: NCI-H661
- assay.text: relative viability (nuclei count vs DMSO), 5 days (fraction); higher = more cells survive
- condition.details: first compound 4 µM
value.kind: relative viability
Reply with the value as a number alone.

Cc1sc2c(c1C)C(c1ccc(Cl)cc1)=N[C@@H](CC(=O)OC(C)(C)C)c1nnc(C)n1-2 [JQ1] + CC(C)C[C@H](NC(=O)[C@H](Cc1ccccc1)NC(=O)c1cnccn1)B(O)O [Bortezomib] (partner 0.002 µM) ... 0.537
Cc1sc2c(c1C)C(c1ccc(Cl)cc1)=N[C@@H](CC(=O)OC(C)(C)C)c1nnc(C)n1-2 [JQ1] + N=C(N)NC(=N)NCCc1ccccc1 [Phenformin] (partner 250 µM) ... 0.282
Cc1sc2c(c1C)C(c1ccc(Cl)cc1)=N[C@@H](CC(=O)OC(C)(C)C)c1nnc(C)n1-2 [JQ1] + Cc1nc(NC(=O)N2CCC[C@H]2C(N)=O)sc1-c1ccnc(C(C)(C)C(F)(F)F)c1 [Alpelisib] (partner 2 µM) ... 0.465

Reported relative viability, compound Cc1sc2c(c1C)C(c1ccc(Cl)cc1)=N[C@@H](CC(=O)OC(C)(C)C)c1nnc(C)n1-2 [JQ1] + CS(=O)(=O)N1CCN(Cc2cc3nc(-c4cccc5[nH]ncc45)nc(N4CCOCC4)c3s2)CC1 [Pictilisib] (partner 1 µM) : ____
0.294
